System: U2OS
measurement.notes: Multiplex assay against U2OS
Format: toxicity, cell-based
particulars: human, 12 h, 1 µM, compound concentration 1 uM, replicate 2
Population Normal (%) listing for selected compounds.
Kindly provide the numeric value in % only, without the unit symbol.

compound	Population Normal (%)
Nc1nc(CC(=O)Nc2ccc(CCNC[C@H](O)c3ccccc3)cc2)cs1	99
Cc1ccc(OCC(O)C(C)NC(C)C)c2c1CCC2.Cl (stereo not given)	98

Please find the next compound below.
Input line: // query Population Normal (%) value for entry `CN(C)C(=O)Cn1cc(-c2ccc(-c3nnc4ccccn34)cc2)cn1`
Output line: 99

---

System: HEK-293T
measurement.notes: Multiplex assay against HEK293T
Type: toxicity, cell-based
particulars: human, 12 h, 10 µM, compound concentration 10 uM, replicate 2
measure: Population Apoptotic (%)
Kindly provide the numeric value in % only, without the unit symbol.

Solved cases below.
compound	recorded.result
Cc1nn(C)c2nc(NNC(=O)Nc3cc(Cl)nc(Cl)c3)cc(C(C)C)c12	46
CC(C)C[C@H](CO)Nc1nc(S[C@@H](C)c2ccccc2)nc2nc(N)sc12	67
Nc1nc(-c2ccco2)c2cnn(Cc3ccccc3F)c2n1	40

Please find the next compound below.
Input line: // query Population Apoptotic (%) value for entry CCC(=O)OCC(=O)[C@@]1(OC(=O)CC)[C@@H](C)C[C@H]2[C@@H]3CCC4=CC(=O)C=C[C@]4(C)[C@@]3(Cl)[C@@H](O)C[C@@]21C [BECLOMETHASONE DIPROPIONATE]
Output line: 68

---

Tested on: U2OS
measurement.notes: Multiplex assay against U2OS
Assay type: toxicity, cell-based
particulars: human, 12 h, 1 µM, compound concentration 1 uM, replicate 2
measure: Population Normal (%)
Please format your answer as a value with the unit trailing.

> print(dat)
                                   molecule                measure  recorded.result
1  COc1c(Nc2ccc(S(C)(=O)=O)nc2C)ncnc1OC1CCN(C(=O)OC(C)C)CC1  Population Normal (%)              96%

Input line: Observed Population Normal (%) on U2OS for Cl.Cl.OCCOCCN1CCN(C(c2ccccc2)c2ccc(Cl)cc2)CC1 (stereo not drawn) [HYDROXYZINE HYDROCHLORIDE] , please.
Output line: 98%

Input line: Observed Population Normal (%) on U2OS for `OCCCNc1cc(-c2ccnc(Nc3cccc(Cl)c3)n2)ccn1` , please.
Output line: 94%

---

Test system: U2OS
measurement.notes: Multiplex assay against U2OS
Assay type: toxicity, cell-based
particulars: human, 24 h, 1 µM, compound concentration 1 uM, replicate 2
Non-standard residues stand in square brackets, D forms with d. Residues, ends and D or L forms follow the SMILES beside them.
Exam item: assign condition met to entries whose Population Membrane Permeable-Phenotype (%) is below 8% and condition not met to entries at or above 8%. Note that a value of exactly 8% receives condition not met.

molecule	answer.label
Cn1cc(C(=O)OCC2CCN(CCNS(C)(=O)=O)CC2)c2ccccc21	condition not met
CCC(=O)OCC(=O)[C@@]1(OC(=O)CC)[C@@H](C)C[C@H]2[C@@H]3CCC4=CC(=O)C=C[C@]4(C)[C@@]3(Cl)[C@@H](O)C[C@@]21C [BECLOMETHASONE DIPROPIONATE]	condition met
COCCn1c(C)c(C)s/c1=N\C(=O)C1C(C)(C)C1(C)C	condition not met
CC(C)(C)c1ccc(CSc2cnn(C(C)(C)C)c(=O)c2Cl)cc1	condition met
CC(C)C[C@@H]1NC(=O)[C@@H](C(C)C)NC(=O)[C@@H]2CCCN2C(=O)[C@@H](CC(=O)O)NC(=O)[C@@H](Cc2c[nH]c3ccccc23)NC1=O [BQ-123] (cyclo(L[dW][dD]P[dV]))	condition met
CCCCCCNC(=O)Nc1ccc(S(=O)(=O)Nc2ccc(CCNC[C@H](O)COc3ccc(O)cc3)cc2)cc1	condition not met
Cc1nn(C)c2nc(NNC(=O)Nc3cc(Cl)nc(Cl)c3)cc(C(C)C)c12	condition not met
CN1CCN2c3ccccc3Cc3ccccc3C2C1.Cl (centres undefined) [MIANSERIN HYDROCHLORIDE]	condition met

Input line: Threshold test, Population Membrane Permeable-Phenotype (%) < 8%: `OCCCNc1cc(-c2ccnc(Nc3cccc(Cl)c3)n2)ccn1`
Output line: condition not met

Input line: Threshold test, Population Membrane Permeable-Phenotype (%) < 8%: `Cc1cc(NC(=O)NCCN2CCC(O)(Cc3ccccc3)CC2)c2ccccc2n1`
Output line: condition met

Input line: Threshold test, Population Membrane Permeable-Phenotype (%) < 8%: `Cc1cc(O)c(-c2ccc([C@@H](C)CN(C)C)cc2)c2c1[nH]c(=O)c1sccc12`
Output line: condition not met

Input line: Threshold test, Population Membrane Permeable-Phenotype (%) < 8%: `COC(c1ccccc1)(c1ccccc1)[C@H](Oc1nc(C)cc(C)n1)C(=O)O`
Output line: condition met

---

Tested on: HEK-293T
measurement.notes: Multiplex assay against HEK293T
Type: toxicity, cell-based
particulars: human, 24 h, 1 µM, compound concentration 1 uM, replicate 1
Population Apoptotic (%) listing for selected compounds.

> print(dat)
                                    compound  recorded.result
 1  CSc1nc(NC2CCCC2)c([N+](=O)[O-])c(NC2CCCC2)n1 [GS-39783]              30%
 2  CC(C)(O)C(=O)N1CCN(c2ccc(C(F)(F)F)c(C3=C(c4c[nH]c5ccccc45)C(=O)NC3=O)c2)CC1              33%
 3  O=c1ccc2ccc(OCCCCN3CCN(c4cccc5sccc45)CC3)cc2[nH]1 [BREXPIPRAZOLE]              41%
 4  C[C@@H]1CC(=O)Nc2cccc(-c3ccc4c(c3)c(-c3cnn(C)c3)nn4C)c2N1              38%
 5  Cc1cc(=O)n(C)c2cc(N3C(=O)CC[C@H](NS(=O)(=O)CC(C)C)[C@H]3c3ccc(Cl)cc3)ccc12              33%
 6  COC(c1ccccc1)(c1ccccc1)[C@H](Oc1nc(C)cc(C)n1)C(=O)O [AMBRISENTAN]              37%
 7  CN1CCN(c2ccc(Nc3c4ccccc4nc4ccccc34)cc2)CC1.Cl.Cl.O              42%
 8  Cn1cc(C(=O)OCC2CCN(CCNS(C)(=O)=O)CC2)c2ccccc21              29%
 9  COCCn1c(C)c(C)s/c1=N\C(=O)C1C(C)(C)C1(C)C              19%
10  COc1ccc2[nH]c(I)c(CCNC(C)=O)c2c1 [IODOMELATONIN]              38%

Input line: // query Population Apoptotic (%) value for entry COc1c(Nc2ccc(S(C)(=O)=O)nc2C)ncnc1OC1CCN(C(=O)OC(C)C)CC1 [ADP-597]
Output line: 23%

Input line: // query Population Apoptotic (%) value for entry `CCc1nn2c(C)cc(C)nc2c1Cc1ccc(-c2nnc(C3CCNCC3)o2)cc1`
Output line: 44%

Input line: // query Population Apoptotic (%) value for entry O=C(O)CCC/C=C\CC1C(O)CC(O)C1/C=C/C(O)COc1cccc(Cl)c1 (stereo not drawn) [CLOPROSTENOL]
Output line: 22%

---

System: HEK-293T
measurement.notes: Multiplex assay against HEK293T
Type: toxicity, cell-based
particulars: human, 24 h, 10 µM, compound concentration 10 uM, replicate 2
Population Mitochondria Different-Phenotype (%) listing for selected compounds.
Kindly provide the numeric value in % only, without the unit symbol.

> print(dat)
                                   compound  recorded.result
1  COCCCN1CCC(NC(=O)c2cc(Cl)c(N)c3c2OCC3)CC1 [PRUCALOPRIDE]               51
2  Cl.Cl.OCCOCCN1CCN(C(c2ccccc2)c2ccc(Cl)cc2)CC1 (stereo not drawn) [HYDROXYZINE HYDROCHLORIDE]               72

Input line: Observed Population Mitochondria Different-Phenotype (%) on HEK-293T for Nc1nc(CC(=O)Nc2ccc(CCNC[C@H](O)c3ccccc3)cc2)cs1 [MIRABEGRON] , please.
Output line: 49

---

Test system: Fibroblast
measurement.notes: Multiplex assay against human fibroblast
Format: toxicity, cell-based
particulars: 48 h, 1 µM, compound concentration 1 uM, replicate 1
Population Apoptotic (%) listing for selected compounds.
Kindly provide the numeric value in % only, without the unit symbol.

Solved cases below.
> print(dat)
                                   compound  recorded.result
1  Cl.Cl.OCCOCCN1CCN(C(c2ccccc2)c2ccc(Cl)cc2)CC1 (stereo not drawn) [HYDROXYZINE HYDROCHLORIDE]               60
2         O=c1nc2[nH]c3ccccc3nc-2c(=O)[nH]1               71
3  CSc1nc(NC2CCCC2)c([N+](=O)[O-])c(NC2CCCC2)n1               70
4  Cc1cc(O)c(-c2ccc([C@@H](C)CN(C)C)cc2)c2c1[nH]c(=O)c1sccc12               70

Input line: // query Population Apoptotic (%) value for entry `Cc1c(Cc2ccc3ccccc3n2)c2cc(F)ccc2n1CC(=O)O`
Output line: 72

Input line: // query Population Apoptotic (%) value for entry `COC(c1ccccc1)(c1ccccc1)[C@H](Oc1nc(C)cc(C)n1)C(=O)O`
Output line: 60

Input line: // query Population Apoptotic (%) value for entry `COCCn1c(C)c(C)s/c1=N\C(=O)C1C(C)(C)C1(C)C`
Output line: 60

Input line: // query Population Apoptotic (%) value for entry `CN1CCC(C(=O)c2cccc(NC(=O)c3c(F)cc(F)cc3F)n2)CC1`
Output line: 71
